Entries and their measured activity (Tm shift, normalised) follow.
- Assay Target: Fibroblast growth factor 22 (Homo sapiens)
- Experimental Details: binders of human FGF22 protein, primary screen, FGF22 synaptogenesis inhibitor project, biophysical, thermal shift, single point (AID 651658)
- Test Settings: recombinant FGF22 thermal shift, SYPRO orange fluorescence; at 9.99 µM; hits give high values; percent of sucrose octasulfate shift, DMSO zero
In all, about 340,000 compounds went through this assay and about 5,100 (1.5%) were called active. This excerpt belongs to a sample that is enriched for actives.

Compound	Measure Unit	activity (Tm shift, normalised)
Cc1ccc2[nH]cc(CCNC(=O)C3CCCCC3)c2c1	%	-0.161
Cc1ccc(S(=O)(=O)c2nc(-c3cccs3)oc2NCc2cccnc2)cc1	%	0.137
CN(C)C(=O)C[C@H]1C[C@@H]2c3cc(NC(=O)NC4CCCCC4)ccc3O[C@@H]2[C@@H](CO)O1	%	-7.03
O=S(=O)(c1ccccc1)c1nc(-c2ccccc2F)oc1NCc1cccnc1	%	44.2
Cc1ccc(S(=O)(=O)N(C)C[C@@H]2Oc3c(NC(=O)C4CC4)cccc3C(=O)N([C@H](C)CO)C[C@@H]2C)cc1	%	0.051
O=S(=O)(c1ccccc1)c1nc(-c2ccccc2)oc1NCCCN1CCOCC1	%	0.296
Cc1ccc2[nH]cc(CCNC(=O)c3ccc([N+](=O)[O-])cc3)c2c1	%	43.1
CCCOc1ccc(NC(=O)CC2C(=O)N(C)C(=S)N2Cc2ccc3c(c2)OCO3)cc1 (centres undefined)	%	2.52
O=C(Nc1ccc(Cl)cc1)C1c2cccc[n+]2CC(=O)N1Cc1ccc2c(c1)OCO2 (centres undefined)	%	-0.124
